Experiment: Pulmonary kinetics by intratracheal route, multiple dose (7 days)
Format: in vivo, Wistar rats
Details: both sexes, Wistar, rat, plasma, inhaled or intranasal, 1 mg/kg, 1 mg/kg IT for 7 days, plasma, Day-7; read-out: AUC0-inf, Plasma, Day-7, N-Oxide
value.kind: AUC(0-inf) (ng·h/mL)
Report the value in ng·h/mL with no unit label.

Please give the measured AUC(0-inf) for this compound: O=C(Nc1c(Cl)c[n+]([O-])cc1Cl)c1ccc(OC(F)F)c(OCC2CC2)c1 [Roflumilast N-oxide]
2390

###

Assay: Pulmonary kinetics by intratracheal route, multiple dose (7 days)
Assay type: in vivo, Wistar rats
Conditions: both sexes, Wistar, rat, plasma, inhaled or intranasal, 1 mg/kg, 1 mg/kg IT for 7 days, plasma, Day-1; read-out: Cmax, Plasma, Day-1, N-Oxide
value.kind: Cmax (ng/mL)
Report the value in ng/mL with no unit label.

Please give the measured Cmax for this compound: O=C(Nc1c(Cl)c[n+]([O-])cc1Cl)c1ccc(OC(F)F)c(OCC2CC2)c1 [Roflumilast N-oxide]
530
